Items are presented alongside their recorded IC50.
- System: AHR-regulated gene CYP1A1 in human monocytic U937 cell line
- test.protocol: AHR-regulated CYP1A1 expression in U937 cells (qPCR, kynurenic acid stimulated)
- Assay type: cell-based
- stated.conditions: U-937, 200 μM KA, 16 hours, CYP1A1 vs GAPDH, read-out: Cyp ANATAG mode assay: IC50

- smiles.data: "C[C@@H](CO)NC(=O)c1cc(-c2ccc(-c3ccc(Cl)cc3)nc2)nn(-c2cnn(C)c2)c1=O"
  IC50: "< 100 nM"

Qu. Look at this compound and give its reported IC50. CN(C)C(=O)C(C)(C)NC(=O)c1cc(-c2ccc(C(F)(F)F)cc2)nn(-c2cnn(C)c2)c1=O
Ans. < 100 nM

Qu. Also need C[C@@H](CO)NC(=O)c1cc(-n2cc(-c3ccc(Cl)cc3)cn2)nn(-c2cnn(C)c2)c1=O , thanks.
Ans. < 100 nM

Qu. Also need C[C@@H](CO)NC(=O)c1cc(-c2cnc(-c3ccccc3F)nc2)nn(-c2cnn(C)c2)c1=O , thanks.
Ans. < 100 nM

Qu. Also need C[C@H](NC(=O)c1cc(-c2ccc(Cl)cc2)nn(-c2cccc(F)c2)c1=O)C(=O)N(C)C , thanks.
Ans. < 100 nM

Qu. Also need C[C@@H](CO)NC(=O)c1cc(-c2cnc(-c3ccc(F)cc3)nc2)nc(-c2cnn(C)c2)n1 , thanks.
Ans. < 100 nM

Qu. Also need C[C@@H](CO)NC(=O)c1cc(-c2ccc(C3CCOCC3)cc2)nn(-c2cnn(C)c2)c1=O , thanks.
Ans. 100 to 400 nM

Qu. Also need Cn1cc(-n2nc(-c3ccc(Cl)cc3)cc(C(=O)N[C@H]3CCCCNC3=O)c2=O)cn1 , thanks.
Ans. < 100 nM

Qu. Also need COC[C@H](C)NC(=O)c1cc(-c2cc3ccccc3cn2)nn(-c2cnn(C)c2)c1=O , thanks.
Ans. < 100 nM

Qu. Also need CNC(=O)[C@H](C)NC(=O)c1cc(-c2ccc(C(F)(F)F)cc2)nn(-c2cnn(C)c2)c1=O , thanks.
Ans. < 100 nM

Origin of values: patent US20240351988A1
